Tested on: 677734-321-R-J1-PDC complex spheroid viability;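 further: spheroids exposed to compounds for one week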
experiment-description: Anticancer human tumor 677734-321-R-J1-PDC patient-derived soft tissue sarcoma cell line growth inhibition [POLQ]; active means viability on the fitted dose curve at most 10% of control; inactive means the rest
condition-parameters: second compound 1 µM; first compound 1 µM
Classes used: true (active), false (inactive)

compound="CCCS(=O)(=O)Nc1ccc(F)c(C(=O)c2c[nH]c3ncc(-c4ccc(Cl)cc4)cc23)c1F + COC1C(OC(N)=O)C(O)C(Oc2ccc3c(O)c(NC(=O)c4ccc(O)c(CC=C(C)C)c4)c(=O)oc3c2C)OC1(C)C" group=false
compound="C=CCn1c(=O)c2cnc(Nc3ccc(N4CCN(C)CC4)cc3)nc2n1-c1cccc(C(C)(C)O)n1 + COC1C(OC(N)=O)C(O)C(Oc2ccc3c(O)c(NC(=O)c4ccc(O)c(CC=C(C)C)c4)c(=O)oc3c2C)OC1(C)C" group=false
compound="CCc1c2c(nc3ccc(O)cc13)-c1cc3c(c(=O)n1C2)COC(=O)[C@]3(O)CC + COC1C(OC(N)=O)C(O)C(Oc2ccc3c(O)c(NC(=O)c4ccc(O)c(CC=C(C)C)c4)c(=O)oc3c2C)OC1(C)C" group=true
compound="C#Cc1c(F)ccc2cc(O)cc(-c3ncc4c(N5CC6CCC(C5)N6)nc(OCC56CCCN5CC(F)C6)nc4c3F)c12 (stereo not given) + Cc1cccc(N(C)C(=O)C2C(O)CCN2c2nc(C)cc(C(F)(F)F)c2C#N)c1" group=false
compound="O=c1[nH]cc(F)c(=O)[nH]1 + Cc1cccc(N(C)C(=O)C2C(O)CCN2c2nc(C)cc(C(F)(F)F)c2C#N)c1" group=false
compound="CCc1cc2c(N3CCc4c(cc(Cn5ccnc5)cc4-c4cn(C)nc4C(F)(F)F)C3=O)ccnc2c(OC)n1 + COC1C(OC(N)=O)C(O)C(Oc2ccc3c(O)c(NC(=O)c4ccc(O)c(CC=C(C)C)c4)c(=O)oc3c2C)OC1(C)C" group=false
compound="C#Cc1c(F)ccc2cc(O)cc(-c3ncc4c(N5CC6CCC(C5)N6)nc(OCC56CCCN5CC(F)C6)nc4c3F)c12 (stereo not given) + Nc1ccc(C#CCN(C(=O)Cc2ncc(C(F)(F)F)cc2C(F)(F)F)c2ccc(F)cc2)nn1" group=false
compound="C=CC(=O)N1CCN(c2nc(=O)n(-c3c(C)ccnc3C(C)C)c3nc(-c4c(O)cccc4F)c(F)cc23)C(C)C1 (stereo not given) + COC1C(OC(N)=O)C(O)C(Oc2ccc3c(O)c(NC(=O)c4ccc(O)c(CC=C(C)C)c4)c(=O)oc3c2C)OC1(C)C" group=false
compound="CC(C)n1c(=O)n(C)c2cnc3cc(F)c(-c4ccc(OCCCN5CCCCC5)nc4)cc3c21 + Cc1cccc(N(C)C(=O)C2C(O)CCN2c2nc(C)cc(C(F)(F)F)c2C#N)c1" group=false
compound="CC(C)n1c(=O)n(C)c2cnc3cc(F)c(-c4ccc(OCCCN5CCCCC5)nc4)cc3c21 + Nc1ccc(C#CCN(C(=O)Cc2ncc(C(F)(F)F)cc2C(F)(F)F)c2ccc(F)cc2)nn1" group=false
compound="COc1cccc2c1C(=O)c1c(O)c3c(c(O)c1C2=O)CC(O)(C(=O)CO)CC3OC1CC(N)C(O)C(C)O1 (stereo not given) + Nc1ccc(C#CCN(C(=O)Cc2ncc(C(F)(F)F)cc2C(F)(F)F)c2ccc(F)cc2)nn1" group=true
compound="C#Cc1c(F)ccc2cc(O)cc(-c3ncc4c(N5CC6CCC(C5)N6)nc(OCC56CCCN5CC(F)C6)nc4c3F)c12 (stereo not given) + COC1C(OC(N)=O)C(O)C(Oc2ccc3c(O)c(NC(=O)c4ccc(O)c(CC=C(C)C)c4)c(=O)oc3c2C)OC1(C)C" group=false
compound="C=CCn1c(=O)c2cnc(Nc3ccc(N4CCN(C)CC4)cc3)nc2n1-c1cccc(C(C)(C)O)n1 + Nc1ccc(C#CCN(C(=O)Cc2ncc(C(F)(F)F)cc2C(F)(F)F)c2ccc(F)cc2)nn1" group=false
compound="CCc1c2c(nc3ccc(O)cc13)-c1cc3c(c(=O)n1C2)COC(=O)[C@]3(O)CC + Cc1cccc(N(C)C(=O)C2C(O)CCN2c2nc(C)cc(C(F)(F)F)c2C#N)c1" group=true
compound="COc1cccc2c1C(=O)c1c(O)c3c(c(O)c1C2=O)CC(O)(C(=O)CO)CC3OC1CC(N)C(O)C(C)O1 (stereo not given) + Cc1cccc(N(C)C(=O)C2C(O)CCN2c2nc(C)cc(C(F)(F)F)c2C#N)c1" group=true
compound="O=c1[nH]cc(F)c(=O)[nH]1 + COC1C(OC(N)=O)C(O)C(Oc2ccc3c(O)c(NC(=O)c4ccc(O)c(CC=C(C)C)c4)c(=O)oc3c2C)OC1(C)C" group=false
compound="CC1COCCN1c1cc(-c2ccnn2C)c2ccnc(-c3ccn[nH]3)c2n1 (stereo not given) + Cc1cccc(N(C)C(=O)C2C(O)CCN2c2nc(C)cc(C(F)(F)F)c2C#N)c1" group=false
compound="COc1cc2cc(C(=O)CCC(=O)O)sc2cc1OC + COC1C(OC(N)=O)C(O)C(Oc2ccc3c(O)c(NC(=O)c4ccc(O)c(CC=C(C)C)c4)c(=O)oc3c2C)OC1(C)C" group=false
compound="COc1cccc(OCCCN)c1-c1cc(Nc2cnc(C#N)cn2)n[nH]1 + Cc1cccc(N(C)C(=O)C2C(O)CCN2c2nc(C)cc(C(F)(F)F)c2C#N)c1" group=true
compound="CC1COCCN1c1cc(C2(O)CC3CCC(C2)O3)c2cnn(-c3ccn[nH]3)c2n1 (stereo not given) + Cc1cccc(N(C)C(=O)C2C(O)CCN2c2nc(C)cc(C(F)(F)F)c2C#N)c1" group=false

Where do the numbers come from? From PubChem BioAssay AID1963842.
